System: S. aureus
Format: cell-based
Details: S. aureus SA093
Parameter: MIC. Scope: all listed entries.

>  <sequence.string>
ILRWPWWPARRK [MBI 11H09CN]

>  <MIC / µg/mL>
2

$$$$
>  <sequence.string>
KRRWPWWPWKKLI [MBI 11CNR]

>  <MIC / µg/mL>
4

$$$$
>  <sequence.string>
ILAWPWWPWRRK [MBI 11H03CN]

>  <MIC / µg/mL>
2

$$$$
>  <sequence.string>
LWPWWPWRRK [MBI 11G24CN]

>  <MIC / µg/mL>
1

$$$$
>  <sequence.string>
ILRAPWWPWRRK [MBI 11H04CN]

>  <MIC / µg/mL>
2

$$$$
>  <sequence.string>
ILRWPWRRWPWRRK [MBI 11B19CN]

>  <MIC / µg/mL>
2

$$$$
>  <sequence.string>
ILRWWVWWVWWRRK [MBI 11F6CN]

>  <MIC / µg/mL>
8

$$$$

###

Tested on: S. pneumoniae
Assay: Agarose dilution assay (MIC)
Assay type: cell-based
Details: S. pneumoniae strain SBSPN3
Entries annotated with measured MIC
property.measured: MIC

>  <sequence.string>
ILRWPWWPWRRK [MBI 11B7CN]

>  <property.measured>
MIC

>  <value.reported>
>128 µg/mL

$$$$
>  <sequence.string>
ILKKWPWWPWK [MBI 11G13CN]

>  <property.measured>
MIC

>  <value.reported>
128 µg/mL

$$$$
>  <sequence.string>
ILRWVWWVWRRK [MBI 11F4CN]

>  <property.measured>
MIC

>  <value.reported>
>128 µg/mL

$$$$
>  <sequence.string>
ILKKWVWWPWRRK [MBI 11F3CN]

>  <property.measured>
MIC

>  <value.reported>
>128 µg/mL

$$$$
>  <sequence.string>
ILKKYPYYPYRRK [MBI 11A3CN]

>  <property.measured>
MIC

>  <value.reported>
>128 µg/mL

$$$$
>  <sequence.string>
ILKKWPWWPWRK [MBI 11B4CN]

>  <property.measured>
MIC

>  <value.reported>
128 µg/mL

$$$$

###

As shown below, each of these sequences has a reported MIC value.
Tested on: E. coli
Type: cell-based
Details: E. coli ECO005

>  <sequence.string>
PRIWKPKWRLPKR [MBI 11J01CN]

>  <sign>
=

>  <MIC, µg/mL>
64

$$$$
>  <sequence.string>
ILAWPWWPWRRK [MBI 11H03CN]

>  <sign>
=

>  <MIC, µg/mL>
16

$$$$
>  <sequence.string>
LRWPWWPW [MBI 11G26CN]

>  <sign>
=

>  <MIC, µg/mL>
32

$$$$
>  <sequence.string>
ILRWPWWPWRRA [MBI 11H12CN]

>  <sign>
=

>  <MIC, µg/mL>
16

$$$$
>  <sequence.string>
ILRWPWAPWRRK [MBI 11H07CN]

>  <sign>
=

>  <MIC, µg/mL>
32

$$$$
>  <sequence.string>
IARWPWWPWRRK [MBI 11H02CN]

>  <sign>
=

>  <MIC, µg/mL>
16

$$$$
>  <sequence.string>
ILRWWVWWVWWRRK [MBI 11F6CN]

>  <sign>
=

>  <MIC, µg/mL>
32

$$$$
>  <sequence.string>
ILKKNPNNPNRRK [MBI 11CNY1]

>  <sign>
>

>  <MIC, µg/mL>
64

$$$$
>  <sequence.string>
ILKKWPWWPWRRK [MBI 11ACN]

>  <sign>
=

>  <MIC, µg/mL>
16

$$$$
>  <sequence.string>
CLRWPWWPWRRK [MBI 11D19CN]

>  <sign>
=

>  <MIC, µg/mL>
32

$$$$
>  <sequence.string>
ILRWAWWPWRRK [MBI 11H05CN]

>  <sign>
=

>  <MIC, µg/mL>
8

$$$$
>  <sequence.string>
ILKKNPNNPARRK [MBI 11CNX1]

>  <sign>
=

>  <MIC, µg/mL>
64

$$$$
>  <sequence.string>
LRWWWPWRRK [MBI 11G25CN]

>  <sign>
=

>  <MIC, µg/mL>
8

$$$$
>  <sequence.string>
WRWWKPKWRWPKW [MBI 11J02CN]

>  <sign>
=

>  <MIC, µg/mL>
4

$$$$
